Values from patent US20050214285A1

# measurement_target: PTmAb0011
# measurement_description: BIAcore affinity to PTmAb0011
# Format: binding, mouse
# settings: read-out: PTmAb BIAcore KD^Rel (μM) PTmAb0011
Positions of bridges follow the written chain, without caps; N, C: chain ends. Residues, ends and D or L forms follow the SMILES beside them.
measurement_name: Kd
Note to self: number, then unit, no commentary.

Identify Kd associated with the molecule CC[C@H](C)[C@@H]1NC(=O)[C@H](CCSC)NC(=O)[C@H](CCC(=O)O)NC(=O)[C@H](CO)NC(=O)CNC(=O)CNC(=O)[C@H](CC(C)C)NC(=O)[C@H](Cc2c[nH]c3ccccc23)NC(=O)[C@H](C(C)C)NC(=O)[C@H](CCC(=O)O)NC(=O)[C@H](CCCNC(=N)N)NC(=O)[C@@H](NC(=O)[C@@H](N)CO)CSSC[C@@H](C(=O)N[C@@H](CCC(=O)O)C(=O)O)NC(=O)[C@H](CC(=O)O)NC(=O)[C@H](CCSC)NC1=O [EEC39/50/129] (H-SCREVWLGGSEMIMDCE-OH; disulfide 2-16) 2.4 µM

* * *

# System: PTmAb0011
# measurement_description: Phage display ranking of peptide ligands for PTmAb0011
# Assay type: binding, mouse
# settings: IgEC67 mutants (Table 8)
Values of PTmAb Rank 0011 strictly less than 2 map to TRUE, and values of at least 2 map to FALSE.

Below 2 on PTmAb Rank 0011? Entry ADGAGCFINKQLADLELCPREAAEA [IgEC67-12] TRUE

Below 2 on PTmAb Rank 0011? Entry ADGAGCFMNKQQADLELCPRGAAEA [IgEC67-14] TRUE

Below 2 on PTmAb Rank 0011? Entry ADGAGCFINKQLADLELCPRVAAEA [IgEC67-3] TRUE

Below 2 on PTmAb Rank 0011? Entry ADGAGCFMNKQLVDLELCPRGAAEA [IgEC67-5] TRUE

Below 2 on PTmAb Rank 0011? Entry ADGAGCFMNKQMADLELCPREAAEA [IgEC67-10] FALSE

Below 2 on PTmAb Rank 0011? Entry ADGAECFMNKQLADSELCPRVAAEA [IgEC67-13] TRUE

Below 2 on PTmAb Rank 0011? Entry ADGAGCFMNKQLADPELCPREAEEA [IgEC67-4] TRUE

Below 2 on PTmAb Rank 0011? Entry ADGAGCFMNKQLADLELCPREAAEA [IgEC67-7] TRUE

Below 2 on PTmAb Rank 0011? Entry ADGAGCFMNKQMADLELCPRTAAEA [IgEC67-1] FALSE

Below 2 on PTmAb Rank 0011? Entry ADGAGCFMNNQLADWELCPRAAAEA [IgEC67-6] TRUE

Below 2 on PTmAb Rank 0011? Entry ADGAGCFMNKQLADLEMCPRDDAEA [IgEC67-9] FALSE

Below 2 on PTmAb Rank 0011? Entry ADGAGCFMNKQMADWEMCPRAAAEA [IgEC67-11] TRUE

Below 2 on PTmAb Rank 0011? Entry ADGAACFMNKQMADLELCPRVAAEA [IgEC67-2] TRUE

* * *

# measurement_target: PTmAb0005
# measurement_description: BIAcore affinity to PTmAb0005
# Format: binding
# settings: read-out: PTmAb BIAcore KD^Rel (μM) PTmAb0005
# From the text: This involved a DNA sub-cloning transfer from the major coat protein (gVIIIp) filamentous phage display vector to a lower copy number minor phage coat protein (gIIIp) display vector with a random PCR step. […] Included in the tables are ranking orders and also BIAcore affinities where available. Thus indicating the importance of correct presentation of the peptides of the present invention to adopt a shape which closely resembles the native target in the context of the whole IgE molecule. [drawing]
Residues, ends and D or L forms follow the SMILES beside them.
measurement_name: Kd (µM)
Lab book: enter the figure in µM, no units written.

Under PTmAb0005: report Kd of CC[C@H](C)[C@H](NC(=O)[C@H](CCCCN)NC(=O)[C@H](CC(C)C)NC(=O)[C@H](CS)NC(=O)[C@@H](N)CCC(=O)O)C(=O)N[C@@H](CCC(=O)O)C(=O)N[C@@H](CCC(N)=O)C(=O)N[C@@H](CCC(N)=O)C(=O)N[C@@H](CS)C(=O)N[C@@H](C)C(=O)N[C@@H](CC(=O)O)C(=O)N[C@H](C(=O)N[C@H](C(=O)N[C@@H](CCC(=O)O)C(=O)N[C@H](C(=O)N1CCC[C@H]1C(=O)N[C@@H](CCCNC(=N)N)C(=O)O)[C@@H](C)CC)C(C)C)[C@@H](C)CC [IgEC42] (H-ECLKIEQQCADIVEIPR-OH) . 19.4

* * *

# measurement_target: PTmAb0011
# measurement_description: BIAcore affinity to PTmAb0011
# Assay type: binding, mouse
# settings: read-out: PTmAb BIAcore KD^Rel (μM) PTmAb0011
Positions of bridges follow the written chain, without caps; N, C: chain ends. Residues, ends and D or L forms follow the SMILES beside them.
What Kd was measured for each of the following?
Lab book: enter the figure in µM, no units written.

Identify Kd associated with the molecule CC(C)C[C@@H]1NC(=O)[C@H](CC(=O)O)NC(=O)CNC(=O)[C@H](CCC(=O)O)NC(=O)[C@H](CCCNC(=N)N)NC(=O)[C@@H]2CCCN2C(=O)[C@H](Cc2ccccc2)NC(=O)[C@H](C)NC(=O)[C@@H]2CCCN2C(=O)[C@@H](NC(=O)[C@@H](N)CO)CSSC[C@@H](C(=O)N[C@@H](C)C(=O)N2CCC[C@H]2C(=O)N2CCC[C@H]2C(=O)N[C@H](C(=O)N[C@H](C(=O)O)C(C)C)[C@@H](C)O)NC1=O [EEC131] (H-SCPAFPREGDLCAPPTV-OH; disulfide 2-12) 42

Identify Kd associated with the molecule CSCC[C@@H]1NC(=O)[C@H](Cc2ccccc2)NC(=O)[C@@H](N)CSSC[C@@H](C(=O)N2CCC[C@H]2C(=O)N[C@@H](CCCNC(=N)N)C(=O)N[C@@H](CCC(=O)O)C(=O)O)NC(=O)[C@H](CC(C)C)NC(=O)[C@H](CCC(=O)O)NC(=O)[C@H](CC(C)C)NC(=O)[C@H](CC(=O)O)NC(=O)[C@H](C)NC(=O)[C@H](CC(C)C)NC(=O)[C@H](CCC(N)=O)NC(=O)[C@H](CCCCN)NC(=O)[C@H](CC(N)=O)NC1=O [IgEC67] (H-CFMNKQLADLELCPRE-OH; disulfide 1-13) 4.8

* * *

# measurement_target: PTmAb0005
# measurement_description: BIAcore affinity to PTmAb0005
# Type: binding
# settings: read-out: PTmAb BIAcore KD^Rel (μM) PTmAb0005
Positions of bridges follow the written chain, without caps; N, C: chain ends. Residues, ends and D or L forms follow the SMILES beside them.
measurement_name: Kd

Identify Kd associated with the compound CC(C)C[C@@H]1NC(=O)[C@H](CC(=O)O)NC(=O)CNC(=O)[C@H](CCC(=O)O)NC(=O)[C@H](CCCNC(=N)N)NC(=O)[C@@H]2CCCN2C(=O)[C@H](Cc2ccccc2)NC(=O)[C@H](C)NC(=O)[C@@H]2CCCN2C(=O)[C@@H](NC(=O)[C@@H](N)CO)CSSC[C@@H](C(=O)N[C@@H](C)C(=O)N2CCC[C@H]2C(=O)N2CCC[C@H]2C(=O)N[C@H](C(=O)N[C@H](C(=O)O)C(C)C)[C@@H](C)O)NC1=O [EEC131] (H-SCPAFPREGDLCAPPTV-OH; disulfide 2-12) > 1000 µM

* * *

# measurement_target: PTmAb0005
# measurement_description: BIAcore affinity to PTmAb0005
# Assay type: binding
# settings: read-out: PTmAb BIAcore KD^Rel (μM) PTmAb0005
Positions of bridges follow the written chain, without caps; N, C: chain ends. Residues, ends and D or L forms follow the SMILES beside them.
What Kd was measured for each of the following?

Identify Kd associated with the molecule CSCC[C@H](NC(=O)[C@H](CC(N)=O)NC(=O)[C@@H](NC(=O)[C@@H](NC(=O)[C@H](CCC(N)=O)NC(=O)[C@@H](NC(=O)[C@H](CC(=O)O)NC(=O)[C@@H](NC(=O)[C@@H](NC(=O)[C@H](CS)NC(=O)[C@@H](N)CS)C(C)C)[C@@H](C)O)C(C)C)[C@@H](C)O)[C@@H](C)O)C(=O)N[C@@H](CC(=O)O)C(=O)N[C@H](C(=O)N1CCC[C@H]1C(=O)N[C@@H](C)C(=O)NCC(=O)N[C@@H](CCC(N)=O)C(=O)O)C(C)C [IgEC81] (H-CCVTDVQTTNMDVPAGQ-OH) 78 µM

Identify Kd associated with the molecule CSCC[C@H](NC(=O)[C@H](CCC(=O)O)NC(=O)[C@H](CO)NC(=O)[C@H](CO)NC(=O)[C@@H]1CCCN1C(=O)[C@@H](NC(=O)[C@H](CCSC)NC(=O)[C@H](CCC(N)=O)NC(=O)[C@@H](NC(=O)[C@H](CCC(=O)O)NC(=O)[C@@H]1CCCN1C(=O)[C@H](CC(=O)O)NC(=O)[C@H](C)NC(=O)[C@@H](NC(=O)[C@H](CS)NC(=O)[C@@H](N)CS)C(C)C)[C@@H](C)O)[C@@H](C)O)C(=O)N[C@@H](Cc1ccccc1)C(=O)O [IgEC29] (H-CCVADPETQMTPSSEMF-OH) > 600 µM

Identify Kd associated with the molecule CC[C@H](C)[C@H](NC(=O)[C@@H]1CSSC[C@H](NC(=O)[C@@H](N)CCCNC(=N)N)C(=O)N[C@@H](CCC(=O)O)C(=O)N[C@@H](CCC(=O)O)C(=O)N[C@@H](Cc2c[nH]c3ccccc23)C(=O)N[C@@H](CC(C)C)C(=O)N1)C(=O)N1CCC[C@H]1C(=O)N1CCC[C@H]1C(=O)N[C@@H](C)C(=O)N1CCC[C@H]1C(=O)N[C@@H](C)C(=O)N[C@@H](Cc1ccccc1)C(=O)N[C@@H](C)C(=O)N1CCC[C@H]1C(=O)N1CCC[C@H]1C(=O)O [EEC21/19] (H-RCEEWLCIPPAPAFAPP-OH; disulfide 2-7) 14.9 µM
